Cited source for all entries: paper PMC5956543

The compounds below have reported MIC for S. aureus MRSA4.
property-measured: MIC

compound	tgt	property-measured	result
COc1cc2c(=O)oc3c(OC)c(O)cc4c(=O)oc(c1O)c2c34	S. aureus MRSA4	MIC	32 mg/L
O=C(O)c1cn(C2CC2)c2cc(N3CCNCC3)c(F)cc2c1=O [Ciprofloxacin, reference compound]	S. aureus MRSA4	MIC	32 mg/L
O=c1cc(-c2ccc(O)cc2)oc2c([C@@H]3O[C@H](CO)[C@@H](O)[C@H](O)[C@H]3O)c(O)cc(O)c12	S. aureus MRSA4	MIC	128 mg/L
O=c1oc2c(O)c(O)cc3c(=O)oc4c(O)c(O)cc1c4c23	S. aureus MRSA4	MIC	32 mg/L

====

# Lookup of reported MMC/MIC keyed by entry
System: C. neoformans H99
measurement-notes: Broth microdilution antimicrobial assay (MIC/MMC)
Format: cell-based, Cryptococcus neoformans
property-measured: MMC/MIC

molecule	property-measured	readout-number
O=C(C=Cc1ccc(O)cc1)OCC1OC(Oc2c(-c3ccc(O)cc3)oc3cc(O)cc(O)c3c2=O)C(O)C(O)C1O (stereo not drawn) [Compound 6, trans-tiliroside]	MMC/MIC	2
O=c1cc(-c2ccc(O)cc2)oc2c([C@@H]3O[C@H](CO)[C@@H](O)[C@H](O)[C@H]3O)c(O)cc(O)c12 [Compound 5, vitexin]	MMC/MIC	1
COc1cc2c(=O)oc3c(OC)c(O)cc4c(=O)oc(c1O)c2c34 [Compound 7, 3,4′-di-O-methylellagic acid]	MMC/MIC	1
COC(=O)c1cc(O)c(O)c(O)c1-c1c(C(=O)OC)cc(O)c(O)c1O [Compound 8]	MMC/MIC	1
O=c1oc2c(O)c(O)cc3c(=O)oc4c(O)c(O)cc1c4c23 [Compound 10, ellagic acid]	MMC/MIC	1
C[C@@H]1[C@H](O)[C@@H](C)/C=C/C=C/CC/C=C/C=C/C=C/C=C/C(O[C@H]2O[C@H](C)[C@@H](O)[C@H](N)[C@@H]2O)CC2O[C@](O)(CC(O)C(O)CCC(O)CC(O)CC(O)CC(=O)O[C@H]1C)CC(O)C2C(=O)O (stereo partly drawn) [nystatin, reference compound]	MMC/MIC	1

====

Test system: S. aureus MSSA1

compound	tgt	reading-unit	MIC
O=C(O)c1cn(C2CC2)c2cc(N3CCNCC3)c(F)cc2c1=O [Ciprofloxacin, reference compound]	S. aureus MSSA1	µg/mL	1
COc1cc2c(=O)oc3c(OC)c(O)cc4c(=O)oc(c1O)c2c34	S. aureus MSSA1	µg/mL	16
O=c1oc2c(O)c(O)cc3c(=O)oc4c(O)c(O)cc1c4c23	S. aureus MSSA1	µg/mL	16
O=c1cc(-c2ccc(O)cc2)oc2c([C@@H]3O[C@H](CO)[C@@H](O)[C@H](O)[C@H]3O)c(O)cc(O)c12	S. aureus MSSA1	µg/mL	64
COC(=O)c1cc(O)c(O)c(O)c1-c1c(C(=O)OC)cc(O)c(O)c1O	S. aureus MSSA1	µg/mL	32
C=C(C)[C@@H]1CC[C@]2(C)CC[C@]3(C)[C@H](CC[C@@H]4[C@@]5(C)CC[C@H](O)C(C)(C)[C@@H]5CC[C@]43C)[C@@H]12	S. aureus MSSA1	µg/mL	256

====

// values below are reported MIC
System: bacterial and fungal strains
measurement-notes: Broth microdilution MIC, range over all tested strains
Assay type: cell-based
cond: range over all bacterial and fungal strains; read-out: MIC
property-measured: MIC

compound	tgt	result
O=c1oc2c(O)c(O)cc3c(=O)oc4c(O)c(O)cc1c4c23 [Compound 10, ellagic acid]	bacterial and fungal strains	8 to 32 µg/mL
C[C@H]1[C@H](C)CC[C@]2(C(=O)O)CC[C@]3(C)C(=CC[C@@H]4[C@@]5(C)CC[C@H](O)C(C)(C)[C@@H]5CC[C@]43C)[C@H]12 [Compound 3, ursolic acid]	bacterial and fungal strains	128 to 256 µg/mL
O=C(C=Cc1ccc(O)cc1)OCC1OC(Oc2c(-c3ccc(O)cc3)oc3cc(O)cc(O)c3c2=O)C(O)C(O)C1O (stereo not drawn) [Compound 6, trans-tiliroside]	bacterial and fungal strains	32 to 128 µg/mL
COC(=O)c1cc(O)c(O)c(O)c1-c1c(C(=O)OC)cc(O)c(O)c1O [Compound 8]	bacterial and fungal strains	8 to 128 µg/mL
COc1cc2c(=O)oc3c(OC)c(O)cc4c(=O)oc(c1O)c2c34 [Compound 7, 3,4′-di-O-methylellagic acid]	bacterial and fungal strains	16 to 32 µg/mL
